assay: Displacement of [3H]-DTG from sigma-2 receptor in rat liver membrane at 10 uM in presence of (+)-pentazocine; assay type: cell membranes
What inhibition was measured for each of the following?
Quick reminder: number only, in %, skip the unit.

For O=C(O)CCC(=O)N1CCN(C(=O)Cc2ccc(Cl)c(Cl)c2)C2C(N3CCCC3)CCCC21 (racemic) , what is its reported inhibition?
7

Try CCOC(=O)N1CCN(C(=O)Cc2ccc(Cl)c(Cl)c2)C2C(N3CCCC3)CCCC21 (racemic) next.
10

Try O=C(Cc1ccc(Cl)c(Cl)c1)N1CCN(Cc2ccccn2)C2CCCC(N3CCCC3)C21 (racemic) next.
0

Try O=C(Cc1ccc(Cl)c(Cl)c1)N1CCN(Cc2ccccc2)C2CCCC(N3CCC(O)C3)C21 (racemic) next.
24

Try COC(=O)N1CCN(C(=O)Cc2ccc(Cl)c(Cl)c2)C2C(N3CCC(O)C3)CCCC21 (racemic) next.
0

Try COc1ccc(CN2CCN(C(=O)Cc3ccc(Cl)c(Cl)c3)C3C(N4CCCC4)CCCC32)cc1 (racemic) next.
0

----------
Values of Ki reported for Mu-type opioid receptor (Homo sapiens) appear below.
Quick reminder: number only, in µM, skip the unit.

For O=C(Cc1ccc(Cl)c(Cl)c1)N1CCN(Cc2ccccc2)C2CCCC(N3CCC(O)C3)C21 (racemic) , what is its reported Ki?
4.3

Try COC(=O)N1CCN(C(=O)Cc2ccc(Cl)c(Cl)c2)[C@H]2[C@H]1CCC[C@@H]2N1CCCC1 (racemic) next.
2.35

Try O=C(Cc1ccc(Cl)c(Cl)c1)N1CCN(Cc2ccccn2)C2CCCC(N3CCCC3)C21 (racemic) next.
2.26

Try O=C(Cc1ccc(Cl)c(Cl)c1)N1CCN(Cc2ccccc2)[C@@H]2CCC[C@H](N3CCCC3)[C@H]21 (single isomer, unassigned) next.
3.9

Try O=C(Cc1ccc(Cl)c(Cl)c1)N1CCN(Cc2cnc[nH]2)C2CCCC(N3CCC(O)C3)C21 (racemic) next.
4.4

Try COC(=O)N1CCN(C(=O)Cc2ccc(Cl)c(Cl)c2)C2C(N3CCC(O)C3)CCCC21 (racemic) next.
4.45

Try O=C(c1ccccc1)N1CCN(C(=O)Cc2ccc(Cl)c(Cl)c2)C2C(N3CCCC3)CCCC21 (racemic) next.
1.3

Try CCC(=O)N1CCN(C(=O)Cc2ccc(Cl)c(Cl)c2)C2C(N3CCCC3)CCCC21 (racemic) next.
3.34

----------
species on record: Cavia porcellus; assay: Displacement of [3H]-(+)-MK-801 from NMDA receptor PCP binding site in guinea pig brain cortex membranes at 10 uM; type: cell membranes
Recorded inhibition split into classes low range = under 10%, mid range = from 10% up to 20%, high range = 20% and over

Given COc1ccc(CN2CCN(C(=O)Cc3ccc(Cl)c(Cl)c3)C3C(N4CCCC4)CCCC32)cc1 (racemic) , name the class its inhibition places it in.
mid range

Try O=C(c1ccccc1)N1CCN(C(=O)Cc2ccc(Cl)c(Cl)c2)C2C(N3CCCC3)CCCC21 (racemic) next.
low range

Try COC(=O)N1CCN(C(=O)Cc2ccc(Cl)c(Cl)c2)[C@H]2[C@H]1CCC[C@@H]2N1CCCC1 (racemic) next.
high range

Try O=C(O)CC(=O)N1CCN(C(=O)Cc2ccc(Cl)c(Cl)c2)C2C(N3CCC(O)C3)CCCC21 (mixture of isomers) next.
mid range

Try O=C(Cc1ccc(Cl)c(Cl)c1)N1CCN(Cc2ccccc2)[C@@H]2CCC[C@H](N3CCCC3)[C@H]21 (single isomer, unassigned) next.
high range

Try CN1CCN(C(=O)Cc2ccc(Cl)c(Cl)c2)C2C1CCCC2N1CCCC1 (racemic) next.
low range

Try COC(=O)CC(=O)N1CCN(C(=O)Cc2ccc(Cl)c(Cl)c2)C2C(N3CCCC3)CCCC21 (racemic) next.
low range

Try O=C(Cc1ccc(Cl)c(Cl)c1)N1CCNC2CCCC(N3CCC(O)C3)C21 (racemic) next.
mid range

Try O=C(Cc1ccc(Cl)c(Cl)c1)N1CCN(Cc2cnc[nH]2)C2CCCC(N3CCC(O)C3)C21 (racemic) next.
high range

Try O=C(Cc1ccc(Cl)c(Cl)c1)N1CCN(Cc2ccccc2)C2CCCC(N3CCC(O)C3)C21 (racemic) next.
mid range

Try CCC(=O)N1CCN(C(=O)Cc2ccc(Cl)c(Cl)c2)C2C(N3CCCC3)CCCC21 (racemic) next.
high range

----------
What inhibition was measured for each of the following?
target: Sigma non-opioid intracellular receptor 1 (Cavia porcellus); test: Displacement of [3H]-(+)-pentazocine from sigma-1 receptor in guinea pig brain cortex membranes at 10 uM; assay type: cell membranes; conditions: Cerebral cortex
Quick reminder: number only, in %, skip the unit.

inhibition of COC(=O)CC(=O)N1CCN(C(=O)Cc2ccc(Cl)c(Cl)c2)C2C(N3CCC(O)C3)CCCC21 (racemic) on Sigma non-opioid intracellular receptor 1 (Cavia porcellus)?
19

Try COc1ccc(CN2CCN(C(=O)Cc3ccc(Cl)c(Cl)c3)C3C(N4CCCC4)CCCC32)cc1 (racemic) next.
26

Try COC(=O)N1CCN(C(=O)Cc2ccc(Cl)c(Cl)c2)C2C(N3CCC(O)C3)CCCC21 (racemic) next.
15

Try COC(=O)CC(=O)N1CCN(C(=O)Cc2ccc(Cl)c(Cl)c2)C2C(N3CCCC3)CCCC21 (racemic) next.
9

Try O=C(Cc1ccc(Cl)c(Cl)c1)N1CCN(Cc2ccccn2)C2CCCC(N3CCCC3)C21 (racemic) next.
20

Try O=C(O)CC(=O)N1CCN(C(=O)Cc2ccc(Cl)c(Cl)c2)C2C(N3CCC(O)C3)CCCC21 (mixture of isomers) next.
17

Try O=C(Cc1ccc(Cl)c(Cl)c1)N1CCN(Cc2cnc[nH]2)C2CCCC(N3CCC(O)C3)C21 (racemic) next.
21

----------
What inhibition was measured for each of the following?
test: Displacement of [3H]-DTG from sigma-2 receptor in rat liver membrane at 10 uM in presence of (+)-pentazocine; type: cell membranes
Quick reminder: number only, in %, skip the unit.

For COC(=O)CC(=O)N1CCN(C(=O)Cc2ccc(Cl)c(Cl)c2)C2C(N3CCCC3)CCCC21 (racemic) , what is its reported inhibition?
0

Try O=C(c1ccccc1)N1CCN(C(=O)Cc2ccc(Cl)c(Cl)c2)C2C(N3CCCC3)CCCC21 (racemic) next.
24

Try O=C(O)CC(=O)N1CCN(C(=O)Cc2ccc(Cl)c(Cl)c2)C2C(N3CCC(O)C3)CCCC21 (mixture of isomers) next.
14

Try COC(=O)CC(=O)N1CCN(C(=O)Cc2ccc(Cl)c(Cl)c2)C2C(N3CCC(O)C3)CCCC21 (racemic) next.
21

----------
target: Kappa-type opioid receptor (Homo sapiens, UniProt P41145); test: Agonist activity at human kappa opioid receptor expressed in HEK-293 cells assessed as stimulation of [35S]-GTPgammaS binding after 30 mins by liquid scintillation counting analysis
Sequence (P41145 whole entry): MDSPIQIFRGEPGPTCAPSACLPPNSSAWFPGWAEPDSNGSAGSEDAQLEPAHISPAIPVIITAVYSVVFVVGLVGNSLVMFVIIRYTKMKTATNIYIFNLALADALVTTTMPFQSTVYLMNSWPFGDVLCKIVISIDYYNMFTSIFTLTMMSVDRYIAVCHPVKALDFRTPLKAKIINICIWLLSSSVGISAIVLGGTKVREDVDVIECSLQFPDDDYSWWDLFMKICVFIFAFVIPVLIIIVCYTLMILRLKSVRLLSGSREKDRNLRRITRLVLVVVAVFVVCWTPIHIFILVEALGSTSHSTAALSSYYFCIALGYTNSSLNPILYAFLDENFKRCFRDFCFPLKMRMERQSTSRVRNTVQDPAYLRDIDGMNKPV
What EC50 was measured for each of the following?
Quick reminder: number only, in nM, skip the unit.

For O=C(Cc1ccc(Cl)c(Cl)c1)N1CCN(Cc2ccccc2)C2CCCC(N3CCC(O)C3)C21 (racemic) , what is its reported EC50?
64

Try O=C(Cc1ccc(Cl)c(Cl)c1)N1CCN(Cc2ccccn2)C2CCCC(N3CCCC3)C21 (racemic) next.
41

Try CCOC(=O)N1CCN(C(=O)Cc2ccc(Cl)c(Cl)c2)C2C(N3CCCC3)CCCC21 (racemic) next.
150

----------
target: Delta-type opioid receptor (Homo sapiens, UniProt P41143); test: Displacement of [3H]-deltorphine from human delta opioid receptor expressed in CHO-K1 cells by scintillation counting analysis
Sequence (P41143 whole entry): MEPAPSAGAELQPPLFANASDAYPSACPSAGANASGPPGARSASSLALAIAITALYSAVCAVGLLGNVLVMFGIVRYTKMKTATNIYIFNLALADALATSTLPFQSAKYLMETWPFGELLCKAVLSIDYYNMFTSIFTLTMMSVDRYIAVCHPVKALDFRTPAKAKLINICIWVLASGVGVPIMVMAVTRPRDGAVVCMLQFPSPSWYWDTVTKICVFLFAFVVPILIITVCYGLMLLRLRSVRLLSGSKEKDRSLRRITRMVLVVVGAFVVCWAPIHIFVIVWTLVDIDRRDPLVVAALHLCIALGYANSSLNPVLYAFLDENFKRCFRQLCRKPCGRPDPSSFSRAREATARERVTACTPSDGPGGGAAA
measured attribute: Ki
Note to self: number, then unit, no commentary.

For O=C(Cc1ccc(Cl)c(Cl)c1)N1CCN(Cc2ccccn2)C2CCCC(N3CCCC3)C21 (racemic) , what is its reported Ki?
4.3 µM

----------
What Ki was measured for each of the following?
target: UniProtKB P35372; assay: biochemical; type: cell-based, CHO-K1

For COc1ccc(CN2CCN(C(=O)Cc3ccc(Cl)c(Cl)c3)C3C(N4CCCC4)CCCC32)cc1 (racemic) , what is its reported Ki?
740 nM

Try COC(=O)CC(=O)N1CCN(C(=O)Cc2ccc(Cl)c(Cl)c2)C2C(N3CCC(O)C3)CCCC21 (racemic) next.
6000 nM

Try CCCCN1CCN(C(=O)Cc2ccc(Cl)c(Cl)c2)C2C(N3CCCC3)CCCC21 (racemic) next.
2300 nM

Try O=C(c1ccccc1)N1CCN(C(=O)Cc2ccc(Cl)c(Cl)c2)C2C(N3CCC(O)C3)CCCC21 (racemic) next.
3620 nM

Try COC(=O)CC(=O)N1CCN(C(=O)Cc2ccc(Cl)c(Cl)c2)C2C(N3CCCC3)CCCC21 (racemic) next.
2200 nM

Try O=C(Cc1ccc(Cl)c(Cl)c1)N1CCN(Cc2cnc[nH]2)C2CCCC(N3CCCC3)C21 (racemic) next.
4690 nM

Try CCOC(=O)N1CCN(C(=O)Cc2ccc(Cl)c(Cl)c2)C2C(N3CCCC3)CCCC21 (racemic) next.
1780 nM
